# System: Mus musculus
# measurement_description: Potentiation of chlorprothixene-induced sedative effect in po dosed CD-1 mouse assessed as loss of righting reflex
# Assay type: functional
# condition_info: CD-1, po
Mark Condition met only when ED50 stays strictly below 4 mg/kg. Values equal to the cut-off are Condition not met.

Request: Could you please tell me whether ED50 recorded for CC(C)(C)N/C=C1\N=C2CN=C(c3ccccc3)c3cc(Cl)ccc3N2C1=O is less than 4 mg/kg?
Result: Condition not met

Request: Is ED50 strictly under 4 mg/kg for the entry CCCN/C=C1\N=C2CN=C(c3ccccc3Cl)c3cc(Cl)ccc3N2C1=O ?
Result: Condition not met

Request: Please determine if CCN/C=C1\N=C2CN=C(c3ccccc3)c3cc(Cl)ccc3N2C1=O is below 4 mg/kg in terms of ED50.
Result: Condition not met

Request: Please let me know if CCCCN/C=C1\N=C2CN=C(c3ccccc3)c3cc(Cl)ccc3N2C1=O shows ED50 below 4 mg/kg.
Result: Condition met

Request: Would you kindly verify if ED50 of CN1CCN(/C=C2\N=C3CN=C(c4ccccc4)c4cc([N+](=O)[O-])ccc4N3C2=O)CC1 is strictly less than 4 mg/kg?
Result: Condition not met

Request: Determine whether this molecule shows ED50 lower than 4 mg/kg (ties excluded): O=C1/C(=C/N2CCSCC2)N=C2CN=C(c3ccccc3)c3cc(Cl)ccc3N12
Result: Condition not met

Request: Criterion: ED50 strictly below 4 mg/kg. Is it met by CN1CCN(/C=C2\N=C3CN=C(c4ccccc4Cl)c4cc(Cl)ccc4N3C2=O)CC1 ?
Result: Condition met

Request: State whether 4 mg/kg exceeds ED50 recorded for CCCCN1CCN(/C=C2\N=C3CN=C(c4ccccc4)c4cc(Cl)ccc4N3C2=O)CC1 .
Result: Condition not met

Request: For this molecule, is ED50 lower than 4 mg/kg? O=CN1CCN(/C=C2\N=C3CN=C(c4ccccc4)c4cc(Cl)ccc4N3C2=O)CC1
Result: Condition not met

Request: Would you kindly verify if ED50 of C/C(=C1/N=C2CN=C(c3ccccc3)c3cc(Cl)ccc3N2C1=O)N1CCNCC1 is strictly less than 4 mg/kg?
Result: Condition not met

###

# Test system: Mus musculus
# measurement_description: Antianxiety activity in po dosed CD-1 mouse assessed as inhibition of foot shock-induced aggression after 30 mins relative to control
# Type: functional
# condition_info: CD-1, po, 0.5 h
Field: ED50. Provide a value for each of the compounds that follow.
Reply with just the number (in mg/kg).

Request: Please give the measured ED50 for this compound: CC(C)(C)N/C=C1\N=C2CN=C(c3ccccc3)c3cc(Cl)ccc3N2C1=O
Result: 1.1

Request: Form field: reported ED50 of CCCN/C=C1\NC2CN=C(c3ccccc3)c3cc(Cl)ccc3N2C1=O (centres undefined)
Result: 0.92

Request: // ED50 lookup, key: O=C1/C(=C/N2CCN(CC3CC3)CC2)N=C2CN=C(c3ccccc3)c3cc(Cl)ccc3N12
Result: 4.65

Request: // query ED50 value for entry CCN1CCN(/C=C2\N=C3CN=C(c4ccccc4F)c4cc([N+](=O)[O-])ccc4N3C2=O)CC1
Result: 0.64

Request: Look up ED50 for this compound: CCCN1CCN(/C=C2\N=C3CN=C(c4ccccc4)c4cc(Cl)ccc4N3C2=O)CC1
Result: 1.3

###

# Tested on: Mus musculus
# measurement_description: Antianxiety activity in po dosed CD-1 mouse assessed as inhibition of foot shock-induced aggression after 30 mins relative to control
# Assay type: functional
# condition_info: CD-1, po, 0.5 h
measured_metric: ED50 (mg/kg)
Your answer should be a plain number; it is taken to be in mg/kg.

Request: Entry CN1CCN(/C=C2\N=C3CN=C(c4ccccc4F)c4cc(Cl)ccc4N3C2=O)CC1 has what ED50?
Result: 0.34

Request: What ED50 value was documented for this compound, CC(C)N1CCN(/C=C2\N=C3CN=C(c4ccccc4)c4cc(Cl)ccc4N3C2=O)CC1 ?
Result: 2.1

Request: // returns reported ED50 for input CN/C=C1\N=C2CN=C(c3ccccc3)c3cc(Cl)ccc3N2C1=O
Result: 5.3

Request: Please look up its ED50: CCCN/C=C1\N=C2CN=C(c3ccccc3Cl)c3cc(Cl)ccc3N2C1=O
Result: 2.4

Request: Param item = CCCCN1CCN(/C=C2\N=C3CN=C(c4ccccc4)c4cc(Cl)ccc4N3C2=O)CC1 ; retrieve measured ED50.
Result: 1.5

###

Kindly supply the reported ED50 values for the records listed here.
# Test system: Mus musculus
# measurement_description: Potentiation of chlorprothixene-induced sedative effect in po dosed CD-1 mouse assessed as loss of righting reflex
# Type: functional
# condition_info: CD-1, po
Express the result in mg/kg but write the number alone.

Request: What value of ED50 has been reported for the following compound? O=C1/C(=C/N2CCN(CC3CC3)CC2)N=C2CN=C(c3ccccc3)c3cc(Cl)ccc3N12
Result: 25

Request: May I ask what ED50 has been recorded for CCN1CCN(/C=C2\N=C3CN=C(c4ccccc4Cl)c4cc([N+](=O)[O-])ccc4N3C2=O)CC1 ?
Result: 0.99

Request: Endpoint output: ED50 of CCCN1CCN(/C=C2\N=C3CN=C(c4ccccc4)c4cc(Cl)ccc4N3C2=O)CC1 . Value?
Result: 3.2

Request: Fill in: ED50 of CN1CCN(/C=C2\N=C3CN=C(c4ccccc4F)c4cc(Cl)ccc4N3C2=O)CC1 is ___
Result: 1.35

Request: GET /values?readout=ED50&item= CN1CCN(/C=C2\N=C3CN=C(c4ccccc4F)c4cc([N+](=O)[O-])ccc4N3C2=O)CC1
Result: 1.6

###

# System: Mus musculus
# measurement_description: Antianxiety activity in po dosed CD-1 mouse assessed as inhibition of foot shock-induced aggression after 30 mins relative to control
# Assay type: functional
# condition_info: CD-1, po, 0.5 h
# label = t if ED50 < 3 mg/kg else f

Request: Does the reported ED50 of CCN1CCN(/C=C2\N=C3CN=C(c4ccccc4Cl)c4cc(Cl)ccc4N3C2=O)CC1 stay below 3 mg/kg?
Result: t

Request: Input C=CCN1CCN(/C=C2\N=C3CN=C(c4ccccc4)c4cc(Cl)ccc4N3C2=O)CC1 ; condition: ED50 strictly below 3 mg/kg. Does it hold?
Result: t

Request: For CN(C)c1ccc(/C=C2\N=C3CN=C(c4ccccc4)c4cc(Cl)ccc4N3C2=O)cc1 , is the recorded ED50 below the cut-off of 3 mg/kg?
Result: f

Request: Given O=C1/C(=C/N2CCOCC2)N=C2CN=C(c3ccccc3)c3cc(Cl)ccc3N12 , is recorded ED50 strictly lower than 3 mg/kg?
Result: t

Request: Lab log: compare recorded ED50 with 3 mg/kg; is it strictly lower for CCCCN/C=C1\N=C2CN=C(c3ccccc3)c3cc(Cl)ccc3N2C1=O ?
Result: f

Request: Field: below-cutoff. Rule: recorded ED50 strictly less than 3 mg/kg. Subject: O=C1/C(=C/N2CCNCC2)N=C2CN=C(c3ccccc3)c3cc(Cl)ccc3N12
Result: f

Request: Would you kindly verify if ED50 of CN1CCN(/C=C2\N=C3CN=C(c4ccccc4)c4cc(Cl)ccc4N3C2=O)CC1 is strictly less than 3 mg/kg?
Result: t

Request: Is ED50 strictly under 3 mg/kg for the entry CNC1=Nc2ccc(Cl)cc2C(c2ccccc2)=[N+]([O-])C1 [CHLORDIAZEPOXIDE] ?
Result: f

Request: Does this compound meet the criterion ED50 < 3 mg/kg? O=C1/C(=C/N2CCSCC2)N=C2CN=C(c3ccccc3)c3cc(Cl)ccc3N12
Result: f

###

# Tested on: Mus musculus
# measurement_description: Acute toxicity in po dosed CD-1 mouse assessed as mortality after 24 hrs
# Format: organism-based
# condition_info: in vivo
Field: ED50. Provide a value for each of the compounds that follow.

Request: Request the reported ED50 associated with O=C1/C(=C/N2CCNCC2)N=C2CN=C(c3ccccc3)c3cc(Cl)ccc3N12
Result: > 1000 mg/kg

Request: Item CCN(CC)CCN/C=C1\N=C2CN=C(c3ccccc3)c3cc(Cl)ccc3N2C1=O has what recorded ED50?
Result: > 1000 mg/kg

Request: Need ED50 of CCN/C=C1\N=C2CN=C(c3ccccc3)c3cc(Cl)ccc3N2C1=O , thanks.
Result: > 1000 mg/kg

Request: Returns the measured ED50 for the input compound. Input: C/C(=C1/N=C2CN=C(c3ccccc3)c3cc(Cl)ccc3N2C1=O)N1CCNCC1
Result: > 1000 mg/kg

Request: // query ED50 value for entry O=C1/C(=C/N2CCSCC2)N=C2CN=C(c3ccccc3)c3cc(Cl)ccc3N12
Result: > 1000 mg/kg

###

# System: Mus musculus
# measurement_description: Antianxiety activity in po dosed CD-1 mouse assessed as inhibition of foot shock-induced aggression after 30 mins relative to control
# Assay type: functional
# condition_info: CD-1, po, 0.5 h
Can you tell me ED50 for the items I'm about to list?
Numeric only. Scale: mg/kg

Request: Name the recorded ED50 for CCN1CCN(/C=C2\N=C3CN=C(c4ccccc4F)c4cc(Cl)ccc4N3C2=O)CC1 .
Result: 0.48

Request: Fill in: ED50 of CCN1CCN(/C=C2\N=C3CN=C(c4ccccc4)c4cc(Cl)ccc4N3C2=O)CC1 is ___
Result: 0.94

Request: Please give the measured ED50 for this compound: CN1CCN(/C=C2\N=C3CN=C(c4ccccc4F)c4cc([N+](=O)[O-])ccc4N3C2=O)CC1
Result: 0.26

Request: Which ED50 is reported for this compound? O=C1/C(=C/NC2CCCCC2)N=C2CN=C(c3ccccc3)c3cc(Cl)ccc3N12
Result: 1.4

Request: // query ED50 value for entry CN1CCN(/C=C2\N=C3CN=C(c4ccccc4Cl)c4cc(Cl)ccc4N3C2=O)CC1
Result: 0.2

Request: Reported ED50 for CN1CCN(/C=C2\N=C3CN=C(c4ccccc4Cl)c4cc([N+](=O)[O-])ccc4N3C2=O)CC1 [LOPRAZOLAM] : what is it?
Result: 0.42

Request: I would be grateful if you could share the reported ED50 for CN(C)/C=C1\N=C2CN=C(c3ccccc3)c3cc(Cl)ccc3N2C1=O .
Result: 14

Request: I am curious: what ED50 value has been reported for CN1CCN(/C=C2\N=C3CN=C(c4ccccc4)c4cc([N+](=O)[O-])ccc4N3C2=O)CC1 ?
Result: 2.2
